Cited source: patent US12540148B2

System: Enterococcus faecium 419/ANA
Measurement Protocol: MIC, microdilution method
Type: cell-based
Conditions Used: Enterococcus faecium, 419/ANA
Reported MIC is given for each of the following compounds.
Respond numerically; units are µg/mL and should not be typed.

# example entries with known answers
1. CCCCOP(=O)(CCN(CCCN)CCCN)OCCCCCCCCCCOP(=O)(CCN(CCCN)CCCN)OCCCC.Cl.Cl.Cl.Cl.Cl.Cl (stereo not shown): 128
2. CCCCCOP(=O)(CCN(CCCN)CCCN)OCCCCCCCCCCOP(=O)(CCN(CCCN)CCCN)OCCCCC.Cl.Cl.Cl.Cl.Cl.Cl (stereo not shown): 32
3. CCCCCOP(=O)(CCN(CCCN)CCCN)OCCCCCCCCCCCCOP(=O)(CCN(CCCN)CCCN)OCCCCC (stereo not shown): 1
4. CCCC/C=C\CCOP(=O)(CCN(CCCN)CCCN)OCCCCCOP(=O)(CCN(CCCN)CCCN)OCC/C=C\CCCC (stereo not shown): 4
5. NCCCN(CCCN)CCP(=O)(OCCCCCCCCCCCCOP(=O)(CCN(CCCN)CCCN)OCCc1ccccc1)OCCc1ccccc1 (stereo not shown): 2
6. CCCCCOP(=O)(CCN(CCCN)CCCN)OCCCCCCCCCCCCCCOP(=O)(CCN(CCCN)CCCN)OCCCCC.Cl.Cl.Cl.Cl.Cl.Cl (stereo not shown): 2
7. CCCCCCOP(=O)(CCN(CCCN)CCCN)OCCCCCCCCCCOP(=O)(CCN(CCCN)CCCN)OCCCCCC.Cl.Cl.Cl.Cl (stereo not shown): 1
8. CCCCCCCCCCOP(=O)(CCN(CCCN)CCCN)OCCCCCCCCCCOP(=O)(CCN(CCCN)CCCN)OCCCCCCCCCC (stereo not shown): 128
9. CC(C)COP(=O)(CCN(CCCN)CCCN)OCCCCCCCCCCCCCCOP(=O)(CCN(CCCN)CCCN)OCC(C)C (stereo not shown): 16
10. CCCCOP(=O)(CCN(CCN)CCN)OCCCCCCCCCCOP(=O)(CCN(CCN)CCN)OCCCC.Cl.Cl.Cl.Cl.Cl.Cl (stereo not shown): 4

Tested on Enterococcus faecium 419/ANA, the item CCCCOP(=O)(CCN(CCCN)CCCN)OCCCCCCCCCCCCCCOP(=O)(CCN(CCCN)CCCN)OCCCC.Cl.Cl.Cl.Cl.Cl.Cl (stereo not shown) showed MIC equal to 2

Tested on Enterococcus faecium 419/ANA, the item CCCC/C=C\CCOP(=O)(CCN(CCCN)CCCN)OCCCCCCOP(=O)(CCN(CCCN)CCCN)OCC/C=C\CCCC (stereo not shown) showed MIC equal to 64

====

Tested on: Enterobacter kobei 3683
Measurement Protocol: MIC, microdilution method
Format: cell-based
Conditions Used: Enterobacter kobei, 3683
Experimental: Disposable microtiter plates are used for testing. […] MIC values are read after 24/48 hours of incubation at 37° C. as the minimum inhibitory concentration of the test substance at which bacterial growth is inhibited. […] MBC is determined by the inoculation method. […] MBC is determined as the lowest concentration that inhibits the visible growth of the bacterium used on agar.
Reported MIC is given for each of the following compounds.

1. NCCCN(CCCN)CCP(=O)(OCCCCCCCCCCCCOP(=O)(CCN(CCCN)CCCN)OCCc1ccccc1)OCCc1ccccc1 (centres unmarked): 8 mg/L
2. CCCCCOP(=O)(CCN(CCCN)CCCN)OCCCCCCCCOP(=O)(CCN(CCCN)CCCN)OCCCCC.Cl.Cl.Cl.Cl.Cl.Cl (centres unmarked): > 128 mg/L
3. CCCCCOP(=O)(CCN(CCCN)CCCN)OCCCCCCCCCCOP(=O)(CCN(CCCN)CCCN)OCCCCC.Cl.Cl.Cl.Cl.Cl.Cl (centres unmarked): 64 mg/L

Tested on Enterobacter kobei 3683, the item CC(C)COP(=O)(CCN(CCCN)CCCN)OCCCCCCCCCCOP(=O)(CCN(CCCN)CCCN)OCC(C)C (centres unmarked) showed MIC equal to > 128 mg/L
